Molecular target: HIV reverse transcriptase with the K103N mutation (Human immunodeficiency virus type 1 group M subtype B, UniProt P04585, K690N)
Construct: made in house
Test: ECL assay for inhibition of mutant HIV reverse transcriptase (K103N)
Format: biochemical, HIV-1
Details: K103N mutant RT; read-out: ECL Assay (K103N) IC50
Experimental: 100 μL reaction mixtures were initiated with a combination of primer-template substrate (10 nM final concentration) and dNTPs (0.6 μM dNTPs, 1.25 μM BrdUTP). […] A mixture of detection buffer containing ruthenylated anti-BrdU antibody and streptavidin coated magnetic beads were added to the plate and incubated at room temperature for 1.5 hours prior to quantification via electrochemiluminescence instrument. […]
# log10(IC50) per record follows
endpoint: log10(IC50) (log10 of the value in nM)

[[record]]
sample_smiles = "N#Cc1cc(Cl)cc(Oc2c(C(F)(F)F)ccn(CC(=O)Nc3ccc(S(N)(=O)=O)cc3Cl)c2=O)c1"
numeric_readout = 0.68

[[record]]
sample_smiles = "O=c1c(Oc2cc(Cl)cc(Cl)c2)c(C(F)(F)F)ccn1Cc1n[nH]c2ncccc12"
numeric_readout = 0.32

[[record]]
sample_smiles = "CCOC(=O)c1cc(Cl)cc(Oc2c(Cl)c(CCc3n[nH]c4ncccc34)[nH]c(=O)c2Cl)c1"
numeric_readout = 1.72

[[record]]
sample_smiles = "N#Cc1cc(Cl)cc(Oc2cc(CCc3n[nH]c4ncccc34)ncc2Cl)c1"
numeric_readout = 1.94

[[record]]
sample_smiles = "N#Cc1cc(Cl)cc(Oc2cc(Cn3c(=O)[nH]c4ccccc43)[nH]c(=O)c2Cl)c1"
numeric_readout = 1.11

[[record]]
sample_smiles = "N#Cc1cc(Cl)cc(Oc2cc(CCc3n[nH]c4ncccc34)[nH]c(=O)c2)c1"
numeric_readout = 1.51

[[record]]
sample_smiles = "N#Cc1cc(Cl)cc(Oc2nc(NCc3n[nH]c4nc(N)ccc34)c(Cl)cc2F)c1"
numeric_readout = -0.22


* * *

System: T-lymphoid cells
Type: cell-based
endpoint: Cytotoxicity: no cytotoxicity at concentrations up to

[[record]]
sample_smiles = "N#Cc1cc(Cl)cc(Oc2c(Cl)ccn(Cc3n[nH]c4ncccc34)c2=O)c1"
result = "> 833 nM"

[[record]]
sample_smiles = "N#Cc1cc(Cl)cc(Oc2cc(CCc3n[nH]c4ncccc34)[nH]c(=O)c2)c1"
result = "> 833 nM"

[[record]]
sample_smiles = "N#Cc1cc(Cl)cc(Oc2c(C(F)(F)F)ccn(CC(=O)Nc3ccc(S(N)(=O)=O)cc3Cl)c2=O)c1"
result = "> 833 nM"

[[record]]
sample_smiles = "N#Cc1cc(Cl)cc(Oc2nc(NCc3n[nH]c4nc(N)ccc34)c(Cl)cc2F)c1"
result = "> 833 nM"


* * *

# IC50 per record follows
Target: HIV-1 RT enzyme (wild-type) (Human immunodeficiency virus type 1 group M subtype B, UniProt P04585)
Assay: ECL assay for inhibition of HIV reverse transcriptase (WT)
Assay type: biochemical
Settings: wild-type HIV-1 RT; read-out: ECL Assay (WT) IC50
Method: 100 μL reaction mixtures were initiated with a combination of primer-template substrate (10 nM final concentration) and dNTPs (0.6 μM dNTPs, 1.25 μM BrdUTP). […] A mixture of detection buffer containing ruthenylated anti-BrdU antibody and streptavidin coated magnetic beads were added to the plate and incubated at room temperature for 1.5 hours prior to quantification via electrochemiluminescence instrument.
endpoint: IC50 (nM)

[[record]]
sample_smiles = "N#Cc1cc(Cl)cc(Oc2cc(Cn3c(=O)[nH]c4ccccc43)[nH]c(=O)c2Cl)c1"
numeric_readout = 4.8

[[record]]
sample_smiles = "CN(Cc1ccccc1Cl)C(=O)Cn1ccc(C(F)(F)F)c(Oc2cc(Cl)cc(C#N)c2)c1=O"
numeric_readout = 300

[[record]]
sample_smiles = "Cc1ccn(CCc2n[nH]c3ncccc23)c(=O)c1Oc1cc(Cl)cc(C#N)c1"
numeric_readout = 25

[[record]]
sample_smiles = "N#Cc1cc(Cl)cc(Oc2c(Cl)ccn(Cc3n[nH]c4ncccc34)c2=O)c1"
numeric_readout = 0.8

[[record]]
sample_smiles = "N#Cc1cc(Cl)cc(Oc2cc(CCc3n[nH]c4ncccc34)ncc2Cl)c1"
numeric_readout = 25

[[record]]
sample_smiles = "N#Cc1cc(Cl)cc(Oc2nc(NCc3n[nH]c4nc(N)ccc34)c(Cl)cc2F)c1"
numeric_readout = 0.5

[[record]]
sample_smiles = "N#Cc1cc(Cl)cc(Oc2cc(CCc3n[nH]c4ncccc34)[nH]c(=O)c2Cl)c1"
numeric_readout = 1.9

[[record]]
sample_smiles = "N#Cc1cc(Cl)cc(Oc2cc(CCc3n[nH]c4ncccc34)[nH]c(=O)c2)c1"
numeric_readout = 3.8


* * *

Target: HIV reverse transcriptase with the Y181C mutation (Human immunodeficiency virus type 1 group M subtype B, UniProt P04585, Y768C)
Construct: made in house
Test: ECL assay for inhibition of mutant HIV reverse transcriptase (Y181C)
Type: biochemical, HIV-1
Conditions: Y181C mutant RT; read-out: ECL Assay (Y181C) IC50
pIC50: −log10 of the molar value.
# pIC50 per record follows
endpoint: pIC50

[[record]]
molecule = "N#Cc1cc(Cl)cc(Oc2c(C(F)(F)F)ccn(Cc3n[nH]c4ncccc34)c2=O)c1 [Compound 13-2]"
numeric_readout = 8.70

[[record]]
molecule = "N#Cc1cc(Cl)cc(Oc2c(Cl)ccn(Cc3n[nH]c4ncccc34)c2=O)c1 [Compound 21-8]"
numeric_readout = 9.00

[[record]]
molecule = "N#Cc1cc(Cl)cc(Oc2cc(CCc3n[nH]c4ncccc34)[nH]c(=O)c2)c1 [Compound 3-9]"
numeric_readout = 7.96

[[record]]
molecule = "N#Cc1cc(Cl)cc(Oc2nc(NCc3n[nH]c4nc(N)ccc34)c(Cl)cc2F)c1 [Compound 2-7]"
numeric_readout = 9.00

[[record]]
molecule = "N#Cc1cc(Cl)cc(Oc2cc(CCc3n[nH]c4ncccc34)ncc2Cl)c1 [Compound 6-5]"
numeric_readout = 6.57

[[record]]
molecule = "CCOC(=O)c1cc(Cl)cc(Oc2c(Cl)c(CCc3n[nH]c4ncccc34)[nH]c(=O)c2Cl)c1 [Compound 5-7]"
numeric_readout = 7.31

[[record]]
molecule = "N#Cc1cc(Cl)cc(Oc2nc(NCc3n[nH]c4ncccc34)c(Cl)cc2F)c1 [Compound 1-7]"
numeric_readout = 9.40

[[record]]
molecule = "O=c1c(Oc2cc(Cl)cc(Cl)c2)c(C(F)(F)F)ccn1Cc1n[nH]c2ncccc12 [Compound 19-4]"
numeric_readout = 8.82

[[record]]
molecule = "N#Cc1cc(Cl)cc(Oc2c(Cl)c(Cl)cn(Cc3n[nH]c4ncccc34)c2=O)c1 [Compound 23-2]"
numeric_readout = 8.89

[[record]]
molecule = "N#Cc1cc(Cl)cc(Oc2cc(Cc3n[nH]c4ncccc34)[nH]c(=O)c2Cl)c1 [Compound 24-7]"
numeric_readout = 9.00

[[record]]
molecule = "N#Cc1cc(C#N)cc(Oc2c(C(F)(F)F)ccn(Cc3n[nH]c4ncccc34)c2=O)c1 [Compound 18-4]"
numeric_readout = 8.39

[[record]]
molecule = "N#Cc1cc(Cl)cc(Oc2cc(CCc3n[nH]c4nc(N)ccc34)[nH]c(=O)c2Cl)c1 [Compound 4-4]"
numeric_readout = 8.10

[[record]]
molecule = "N#Cc1cc(Cl)cc(Oc2cc(NCc3n[nH]c4ncccc34)[nH]c(=O)c2Cl)c1 [Compound 8-5]"
numeric_readout = 8.24

[[record]]
molecule = "N#Cc1cc(Cl)cc(Oc2c(C(F)(F)F)ccn(CC(=O)Nc3ccc(S(N)(=O)=O)cc3Cl)c2=O)c1 [Compound 15]"
numeric_readout = 8.41

[[record]]
molecule = "N#Cc1cc(Cl)cc(Oc2cc(CCc3n[nH]c4ncccc34)[nH]c(=O)c2Cl)c1 [Compound 3-8]"
numeric_readout = 8.52


* * *

Target: HIV-1 RT enzyme (wild-type) (Human immunodeficiency virus type 1 group M subtype B, UniProt P04585)
Test: ECL assay for inhibition of HIV reverse transcriptase (WT)
Assay type: biochemical
Details: wild-type HIV-1 RT; read-out: ECL Assay (WT) IC50
pIC50: −log10 of the molar value.
# pIC50 per record follows
endpoint: pIC50

[[record]]
sample_smiles = "N#Cc1cc(Cl)cc(Oc2cc(CCc3n[nH]c4nc(N)ccc34)[nH]c(=O)c2Cl)c1"
endpoint = "pIC50"
numeric_readout = 8.80

[[record]]
sample_smiles = "N#Cc1cc(Cl)cc(Oc2c(C(F)(F)F)ccn(CC(=O)Nc3ccc(S(N)(=O)=O)cc3Cl)c2=O)c1"
endpoint = "pIC50"
numeric_readout = 8.48

[[record]]
sample_smiles = "CCOC(=O)c1cc(Cl)cc(Oc2c(Cl)c(CCc3n[nH]c4ncccc34)[nH]c(=O)c2Cl)c1"
endpoint = "pIC50"
numeric_readout = 8.46

[[record]]
sample_smiles = "Cc1ccn(Cc2n[nH]c3ncccc23)c(=O)c1Oc1cc(Cl)cc(C#N)c1"
endpoint = "pIC50"
numeric_readout = 8.60


Every entry's value here was drawn from patent US8404856B2.
